Numbers sourced from patent US20250313535A1.

Molecular target: α4β1 integrin (Homo sapiens (Human), UniProt P05556+P13612)
Sequence (P13612 34-1032): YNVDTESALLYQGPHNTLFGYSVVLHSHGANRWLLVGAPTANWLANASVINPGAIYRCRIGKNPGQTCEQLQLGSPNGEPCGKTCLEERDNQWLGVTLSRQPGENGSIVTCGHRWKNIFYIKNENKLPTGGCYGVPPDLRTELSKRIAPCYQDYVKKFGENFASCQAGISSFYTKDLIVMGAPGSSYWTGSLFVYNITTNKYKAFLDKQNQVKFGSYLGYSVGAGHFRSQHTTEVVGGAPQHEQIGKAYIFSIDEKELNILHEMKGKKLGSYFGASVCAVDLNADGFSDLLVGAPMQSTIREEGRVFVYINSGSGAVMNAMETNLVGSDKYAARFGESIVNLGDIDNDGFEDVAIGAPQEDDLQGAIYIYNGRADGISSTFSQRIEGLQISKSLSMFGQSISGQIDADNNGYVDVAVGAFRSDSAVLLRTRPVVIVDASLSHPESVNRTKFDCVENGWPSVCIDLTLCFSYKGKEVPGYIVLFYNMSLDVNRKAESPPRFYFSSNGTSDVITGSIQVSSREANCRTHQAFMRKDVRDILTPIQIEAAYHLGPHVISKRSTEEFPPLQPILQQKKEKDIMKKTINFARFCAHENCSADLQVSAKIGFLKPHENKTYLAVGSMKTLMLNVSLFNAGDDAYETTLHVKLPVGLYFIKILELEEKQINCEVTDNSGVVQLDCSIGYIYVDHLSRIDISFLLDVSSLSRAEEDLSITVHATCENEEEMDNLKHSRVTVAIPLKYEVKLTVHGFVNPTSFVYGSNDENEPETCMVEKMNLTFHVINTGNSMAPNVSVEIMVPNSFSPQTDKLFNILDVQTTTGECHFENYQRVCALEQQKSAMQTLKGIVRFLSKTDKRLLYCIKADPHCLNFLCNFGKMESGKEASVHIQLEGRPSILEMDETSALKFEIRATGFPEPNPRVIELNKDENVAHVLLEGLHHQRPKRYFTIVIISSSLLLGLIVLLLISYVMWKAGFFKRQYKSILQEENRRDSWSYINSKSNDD
Sequence (P05556 21-798): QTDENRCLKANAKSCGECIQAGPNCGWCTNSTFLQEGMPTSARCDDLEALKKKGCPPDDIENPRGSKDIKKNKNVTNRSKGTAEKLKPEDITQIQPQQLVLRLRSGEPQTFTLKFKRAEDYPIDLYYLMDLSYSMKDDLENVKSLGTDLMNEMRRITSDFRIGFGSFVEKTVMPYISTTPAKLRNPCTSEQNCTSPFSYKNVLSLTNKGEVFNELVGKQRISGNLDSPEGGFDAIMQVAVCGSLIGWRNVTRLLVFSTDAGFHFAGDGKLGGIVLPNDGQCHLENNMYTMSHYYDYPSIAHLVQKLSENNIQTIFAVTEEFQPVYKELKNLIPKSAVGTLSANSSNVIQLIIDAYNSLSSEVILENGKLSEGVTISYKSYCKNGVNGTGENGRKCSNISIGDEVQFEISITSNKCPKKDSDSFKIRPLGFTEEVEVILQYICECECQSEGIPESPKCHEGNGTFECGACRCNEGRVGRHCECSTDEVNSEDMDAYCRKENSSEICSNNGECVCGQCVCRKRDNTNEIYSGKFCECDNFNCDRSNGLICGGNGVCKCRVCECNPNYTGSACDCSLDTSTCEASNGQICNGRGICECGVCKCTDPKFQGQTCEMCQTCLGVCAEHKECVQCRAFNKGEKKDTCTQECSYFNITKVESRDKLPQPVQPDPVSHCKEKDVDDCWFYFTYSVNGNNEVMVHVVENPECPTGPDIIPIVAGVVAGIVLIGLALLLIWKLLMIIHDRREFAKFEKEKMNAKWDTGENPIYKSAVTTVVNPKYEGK
Test: Integrin Adhesion Assay: Protocol 2 (VCAM-coated plate, Jurkat cells, CellTiter GLO readout)
Format: cell-based
Conditions: determined by at least one of the assays described (protocol not specified)
Below, each entry is listed alongside its reported IC50.

Would you please look over these solved cases?
Cn1ccc(=O)n(-c2cccc3c(C[C@H](NC(=O)c4c(F)cc(CN5CCC5)cc4F)C(=O)O)cccc23)c1=O [Compound 33] :: > 1000 nM
Cn1ccc(=O)n([C@H]2CCc3c(C[C@H](NC(=O)c4c(F)cccc4F)C(=O)O)cccc32)c1=O (single isomer, unassigned) [Compound 282] :: > 1000 nM
Cn1ccc(C(F)(F)F)c(-c2nccc3c(C[C@H](NC(=O)c4c(F)cc(N5CCOC[C@@H]5C(F)(F)F)cc4F)C(=O)O)cccc23)c1=O [Compound 214] :: > 1000 nM

Query: Name the recorded IC50 of the molecule listed here: Cn1ccc(=O)n(-c2cccc3c(C[C@H](NC(=O)c4c(F)cc5c(ccn5C)c4F)C(=O)O)cccc23)c1=O [Compound 27]
Result: > 1000 nM

Query: Name the recorded IC50 of the molecule listed here: CCOCc1cc(OC)c(-c2cccc3c(C[C@H](NC(=O)c4c(F)cc(N5CCOC[C@@H]5C(F)(F)F)cc4F)C(=O)O)cccc23)c(OC)c1 [Compound 171]
Result: 100 to 1000 nM

Query: Name the recorded IC50 of the molecule listed here: Cn1ccc(C(F)(F)F)c(-c2nccc3c(C[C@H](NC(=O)c4c(F)cc5nc(CC(F)(F)F)[nH]c5c4F)C(=O)O)cccc23)c1=O [Compound 213]
Result: > 1000 nM

###

Below, each entry is listed alongside its reported IC50.
Target: α4β7 integrin (Homo sapiens (Human), UniProt P13612+P26010)
Sequence (P26010 20-798, one chain of several): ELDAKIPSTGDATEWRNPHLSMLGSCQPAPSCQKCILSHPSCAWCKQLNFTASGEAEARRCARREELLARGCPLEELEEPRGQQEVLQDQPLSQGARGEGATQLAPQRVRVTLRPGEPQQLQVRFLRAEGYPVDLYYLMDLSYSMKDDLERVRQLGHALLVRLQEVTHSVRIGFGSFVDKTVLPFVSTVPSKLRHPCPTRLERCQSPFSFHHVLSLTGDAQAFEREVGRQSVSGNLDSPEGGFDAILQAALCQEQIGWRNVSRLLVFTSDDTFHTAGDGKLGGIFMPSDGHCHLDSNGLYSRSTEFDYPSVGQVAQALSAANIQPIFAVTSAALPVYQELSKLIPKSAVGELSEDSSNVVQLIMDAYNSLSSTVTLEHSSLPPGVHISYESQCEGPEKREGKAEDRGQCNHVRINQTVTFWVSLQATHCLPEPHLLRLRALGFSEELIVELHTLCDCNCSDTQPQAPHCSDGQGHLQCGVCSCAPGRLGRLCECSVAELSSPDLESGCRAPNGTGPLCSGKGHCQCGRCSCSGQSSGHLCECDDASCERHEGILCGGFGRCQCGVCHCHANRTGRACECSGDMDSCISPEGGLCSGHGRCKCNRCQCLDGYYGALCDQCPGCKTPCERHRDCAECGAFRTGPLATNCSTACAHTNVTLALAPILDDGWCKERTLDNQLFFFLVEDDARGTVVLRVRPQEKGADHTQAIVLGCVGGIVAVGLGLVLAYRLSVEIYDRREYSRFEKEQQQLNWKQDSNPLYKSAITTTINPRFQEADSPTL
Assay: Integrin Adhesion Assay: Protocol 4 (MAdCAM-coated plate, RPMI-8866 cells with stable LOF mutation of the ITGB1 gene)
Assay type: cell-based
Settings: Protocol 4; RPMI-8866 cells with LOF mutation of ITGB1, MAdCAM; read-out: Mean IC50 α4β7 KO

Cn1c(=O)c(-c2cccc3c(C[C@H](NC(=O)C4(C(F)(F)F)CCN(CC(F)F)CC4)C(=O)O)cccc23)c(C(F)(F)F)c2cc(CN3CCC(c4ccccc4)CC3)ccc21 :: < 0.01 µM
O=C(O)[C@H](Cc1cccc2c(-c3ncc(CN4CCOC(C(F)(F)F)C4)c4ccccc34)cccc12)NC(=O)C1(C(F)(F)F)CCN(CC(F)F)CC1 (stereo partly drawn) :: 0.01 to 0.1 µM
COc1ccc(CN2CCN(C)C(C)(C)C2)c(OC)c1-c1cccc2c(C[C@H](NC(=O)C3(C(F)(F)F)CCN(CC(F)(F)F)CC3)C(=O)O)cccc12 :: < 0.01 µM
Cn1c(=O)c(-c2cccc3c(C[C@H](NC(=O)c4c(F)cccc4F)C(=O)O)cccc23)c(C(F)(F)F)c2cc(CCN3CCC3)ccc21 :: < 0.01 µM
O=C(O)[C@H](Cc1cccc2c(-c3ncc(CN4CCN(C5CC5)CC4)c4ccccc34)cccc12)NC(=O)C1(C(F)(F)F)CCN(CC(F)F)CC1 :: < 0.01 µM

Query: Tell me IC50 of "COc1c(CN(C)C)ccc(C)c1-c1cccc2c(C[C@H](NC(=O)c3c(C)cccc3F)C(=O)O)cccc12" when tested on α4β7 integrin (Homo sapiens (Human), UniProt P13612+P26010).
Result: < 0.01 µM

###

Below, each entry is listed alongside its reported pIC50.
Molecular target: α4β1 integrin (Homo sapiens (Human), UniProt P05556+P13612)
Test: Integrin Adhesion Assay: Protocol 5 (VCAM-coated plate, RPMI-8866 cells with stable LOF mutation of the ITGB7 gene)
Assay type: cell-based
Conditions: RPMI-8866 cells with stable LOF mutation of the ITGB7 gene; read-out: Mean IC50 α4β1 KO^b
pIC50: −log10 of the molar value.

Cn1c(=O)c(-c2cccc3c(C[C@H](NC(=O)C4(C(F)(F)F)CCN(CC5(F)CCC5)CC4)C(=O)O)cccc23)c(C(F)(F)F)c2ccccc21 [Compound 533] :: < 6.00
CN(C)Cc1ccc2c(-c3cccc4c(C[C@H](NC(=O)[C@]5(C)CC[C@@H](N6CCOC[C@@H]6C(F)(F)F)CC5)C(=O)O)cccc34)nccc2c1 [Compound 581] :: < 6.00

Query: Name the recorded pIC50 of the compound listed here: CN(c1cc(F)c(C(=O)N[C@@H](Cc2cccc3c(-c4c(C(F)(F)F)c5ccccc5n(C)c4=O)cccc23)C(=O)O)c(F)c1)C1COC1 [Compound 364]
Result: < 6.00

Query: Name the recorded pIC50 of the compound listed here: Cn1c(=O)c(-c2cccc3c(C[C@H](NC(=O)C4(C)CC5(CN(CC(F)(F)F)C5)C4)C(=O)O)cccc23)c(C(F)(F)F)c2ccccc21 [Compound 521]
Result: < 6.00

Query: Name the recorded pIC50 of the compound listed here: COc1ccc(CN2CCC(F)(F)CC2)c(OC)c1-c1cccc2c(C[C@H](NC(=O)C3(C(F)(F)F)CCN([C@@H]4COC[C@H]4F)CC3)C(=O)O)cccc12 [Compound 670]
Result: 6.00 to 7.00

Query: Name the recorded pIC50 of the compound listed here: COc1ccc(CN2CC(OC)C2)c(OC)c1-c1cccc2c(C[C@H](NC(=O)c3c(C)cccc3F)C(=O)O)cccc12 [Compound 638]
Result: 6.00 to 7.00

###

Below, each entry is listed alongside its reported IC50.
Target: α4β7 integrin (Homo sapiens (Human), UniProt P13612+P26010)
Assay: Integrin Adhesion Assay: Protocol 1 (MAdCAM-coated plate, RPMI-8866 cells, CellTiter GLO readout)
Format: cell-based

Would you please look over these solved cases?
Cn1c(=O)c(-c2cccc3c(C[C@H](NC(=O)c4c(F)cc(C5CCCCC5)cc4F)C(=O)O)cccc23)c(C(F)(F)F)c2ccccc21 :: > 1000 nM
Cn1c(=O)c(-c2cccc3c(C[C@H](NC(=O)c4c(F)cc(C5CCC(F)(F)CC5)cc4F)C(=O)O)cccc23)c(C(F)(F)F)c2ccccc21 :: 100 to 1000 nM
Cn1c(=O)c(-c2cccc3c(C[C@H](NC(=O)c4c(F)cc(N5CC(F)(F)OC(F)(F)C5)cc4F)C(=O)O)cccc23)c(C(F)(F)F)c2ccccc21 :: 100 to 1000 nM
Cc1n[nH]c(C(F)(F)F)c1-c1cc(F)c(C(=O)N[C@@H](Cc2cccc3c(-c4c(C(F)(F)F)c5ccccc5n(C)c4=O)cccc23)C(=O)O)c(F)c1 :: 100 to 1000 nM
Cn1c(=O)c(-c2cccc3c(C[C@H](NC(=O)c4c(F)cc(N5CCC(F)(F)CC5)cc4F)C(=O)O)cccc23)c(C(F)(F)F)c2ccccc21 :: 100 to 1000 nM

Next, consider the following compound.
Query: Name the recorded IC50 of the compound listed here: "Cn1c(=O)c(-c2cccc3c(C[C@H](NC(=O)c4c(F)cc(N5CCOc6ccccc65)cc4F)C(=O)O)cccc23)c(C(F)(F)F)c2ccccc21"
Result: 100 to 1000 nM

###

Molecular target: α4β7 integrin (Homo sapiens (Human), UniProt P13612+P26010)
Assay: Integrin Adhesion Assay: Protocol 1 (MAdCAM-coated plate, RPMI-8866 cells, CellTiter GLO readout)
Assay type: cell-based
Conditions: protocol not given
Below, each entry is listed alongside its reported IC50.

CN(C)Cc1ccc2c(c1)c(C(F)(F)F)c(-c1cccc3c(C[C@H](NC(=O)c4c(F)cc(C(F)(F)F)cc4F)C(=O)O)cccc13)c(=O)n2C :: < 10 nM
O=C(N[C@@H](Cc1cccc2c(-n3cccc(C(F)(F)F)c3=O)cccc12)C(=O)O)c1c(F)cccc1F :: 10 to 100 nM
CN(C)Cc1ccc2c(c1)c(C(F)(F)F)c(-c1cccc3c(C[C@H](NC(=O)c4c(F)cccc4F)C(=O)O)cccc13)c(=O)n2C :: < 10 nM
O=C(N[C@@H](Cc1cccc2c(-n3c(C(F)(F)F)cccc3=O)cccc12)C(=O)O)c1c(F)cccc1F :: 10 to 100 nM
Cc1cccc(C)c1-c1cc(C(=O)N[C@@H](Cc2cccc3c(-n4c(=O)cc(CCN5CC(F)C5)n(C)c4=O)cccc23)C(=O)O)c(F)c(C(F)(F)F)c1 :: 100 to 1000 nM

Query: Name the recorded IC50 of the compound listed here: "CN(C)c1ccc2c(C(F)(F)F)c(-c3cccc4c(C[C@H](NC(=O)c5c(F)cccc5F)C(=O)O)cccc34)c(=O)n(C)c2c1"
Result: 100 to 1000 nM

###

Molecular target: α4β1 integrin (Homo sapiens (Human), UniProt P05556+P13612)
Experiment: Integrin Adhesion Assay: Protocol 5 (VCAM-coated plate, RPMI-8866 cells with stable LOF mutation of the ITGB7 gene)
Type: cell-based
Settings: RPMI-8866 cells with stable LOF mutation of the ITGB7 gene; read-out: Mean IC50 α4β1 KO^b
pIC50: −log10 of the molar value.
quantity: pIC50

COc1ccc(CN(C)C)c(OC)c1-c1cccc2c(C[C@H](NC(=O)c3c(C)cc(C(F)(F)F)cc3F)C(=O)O)cccc12 [Compound 603] :: < 6.00
CCCN1CCC(C(=O)N[C@@H](Cc2cccc3c(-c4c(C(F)(F)F)c5ccccc5n(C)c4=O)cccc23)C(=O)O)(C(F)(F)F)CC1 [Compound 535] :: < 6.00
COc1ccc(CN2CCCC2C)c(OC)c1-c1cccc2c(C[C@H](NC(=O)c3c(C)cccc3F)C(=O)O)cccc12 (some centres unmarked) [Compound 633] :: 7.00 to 8.00
Cn1c(=O)c(-c2cccc3c(C[C@H](NC(=O)C4(C)CN(C5CCOC(C(F)(F)F)C5)C4)C(=O)O)cccc23)c(C(F)(F)F)c2ccccc21 (some centres unmarked) [Compound 506] :: < 6.00
CN(C)Cc1cccc2c(-c3cccc4c(C[C@H](NC(=O)[C@]5(C)CC[C@@H](N6CCOC[C@@H]6C(F)(F)F)CC5)C(=O)O)cccc34)nccc12 [Compound 418] :: < 6.00

Query: Name the recorded pIC50 of the compound listed here: CC1(C(=O)N[C@@H](Cc2cccc3c(-c4ncc(CN5CCCCC5)c5ccccc45)cccc23)C(=O)O)CC2CCC(C1)N2CC(F)(F)F (some centres unmarked) [Compound 679]
Result: < 6.00

Query: Name the recorded pIC50 of the compound listed here: O=C(O)[C@H](Cc1cccc2c(-c3nccc4c(CN5CCC6(CCCCC6)CC5)cccc34)cccc12)NC(=O)C1(C(F)(F)F)CCN(CC(F)(F)F)CC1 [Compound 661]
Result: < 6.00

Query: Name the recorded pIC50 of the compound listed here: O=C(O)[C@H](Cc1cccc2c(-c3ncc(CN4CCCCC4)c4ccccc34)cccc12)NC(=O)C1(C(F)(F)F)CCN([C@H]2COCC2(F)F)CC1 [Compound 680]
Result: 6.00 to 7.00

Query: Name the recorded pIC50 of the compound listed here: Cn1c(=O)c(-c2cccc3c(C[C@H](NC(=O)c4c(F)ccc(-c5cccnc5)c4F)C(=O)O)cccc23)c(C(F)(F)F)c2ccccc21 [Compound 312]
Result: < 6.00

Query: Name the recorded pIC50 of the compound listed here: Cn1c(=O)c(-c2cccc3c(C[C@H](NC(=O)C4(C(F)(F)F)CCN(CC(F)F)CC4)C(=O)O)cccc23)c(C(F)(F)F)c2ccccc21 (racemic) [Compound 480]
Result: 6.00 to 7.00

Query: Name the recorded pIC50 of the compound listed here: Cc1cccc(C)c1-c1ccc(F)c(C(=O)N[C@@H](Cc2cccc3c(-c4c(C(F)(F)F)c5ccccc5n(C)c4=O)cccc23)C(=O)O)c1F [Compound 307]
Result: < 6.00

Query: Name the recorded pIC50 of the compound listed here: CCc1cccc(F)c1C(=O)N[C@@H](Cc1cccc2c(-c3c(CN4CCCCC4)cccc3OC)cccc12)C(=O)O [Compound 546]
Result: 6.00 to 7.00

Query: Name the recorded pIC50 of the compound listed here: Cn1c(C(F)(F)F)cc(C(F)(F)F)c(-c2cccc3c(C[C@H](NC(=O)[C@]4(C)CC[C@@H](N5CCC(F)(F)CC5)CC4)C(=O)O)cccc23)c1=O (single isomer, unassigned) [Compound 405]
Result: < 6.00

Query: Name the recorded pIC50 of the compound listed here: COc1ccc(CN(C)C)c(OC)c1-c1cccc2c(C[C@H](NC(=O)c3c(C)cc(NCC(F)(F)F)cc3F)C(=O)O)cccc12 [Compound 607]
Result: 6.00 to 7.00
